These entries and their values trace back to patent US20240270821A1.

assayedSystem: human glucagon receptor (human) (UniProt P47871)
Sequence (P47871 26-477): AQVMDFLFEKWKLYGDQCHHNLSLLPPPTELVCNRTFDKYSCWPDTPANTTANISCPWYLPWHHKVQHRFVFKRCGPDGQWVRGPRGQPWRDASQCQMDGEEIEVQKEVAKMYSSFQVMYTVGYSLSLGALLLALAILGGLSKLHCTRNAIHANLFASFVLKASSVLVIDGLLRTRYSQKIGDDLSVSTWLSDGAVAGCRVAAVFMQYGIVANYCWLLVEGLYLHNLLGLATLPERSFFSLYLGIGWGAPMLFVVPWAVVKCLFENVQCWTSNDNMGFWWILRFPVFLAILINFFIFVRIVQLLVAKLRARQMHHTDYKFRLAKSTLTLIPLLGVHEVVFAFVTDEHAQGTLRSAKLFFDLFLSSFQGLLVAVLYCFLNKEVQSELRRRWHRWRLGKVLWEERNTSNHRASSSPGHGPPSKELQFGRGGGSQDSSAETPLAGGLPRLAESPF
test: cell-based or functional assay
cAMP Rel EC50, nM (1% HSA) values for the binders below.

# example entries with known answers
binder | measurement
YXQGTXTSDYXIXLDXKAQXXFIEXLLEGGPSSGEPPPS (synthetic construct; SITE 2: note = 2-Aminoisobutyric Acid; SITE 6: note = alpha-methyl-2-fluoro-L-phenylalanine; SITE 11: note = alpha-methyl-L-serine; SITE 13: note = alpha-methyl-leucine; SITE 16: note = L-ornithine; SITE 17: note = Lysine is chemically modified through conjugation of the epsilon) [Example 368] | 111 nM
YXQGTFTSDXSXXLDKKAQXAFIEYLLAGGPSSGEPPPSGS (synthetic construct; SITE 2: note = 2-Aminoisobutyric Acid; SITE 10: note = 3-(4-Pyridyl)-L-alanine; SITE 12: note = L-ornithine; SITE 13: note = alpha-methyl-leucine; SITE 17: note = Lysine is chemically modified through conjugation of the epsilon-amino group of the Lysine side chain with (2-[2-(2-) [Example 154] | 1040 nM
YXQGTFTSDXSXXLDXKAQXEFIEXLIAGGPSSGAPPPSGSEE (non-natural residues; lipidated Lys (γGlu)2-C18 diacid; C-term amide; synthetic construct; SITE 2: note = 2-Aminoisobutyric Acid; SITE 10: note = 3-(4-Pyridyl)-L-alanine; SITE 12: note = L-ornithine; SITE 13: note = alpha-methyl-leucine; SITE 16: note = L-ornithine; SITE 17: note = Lysine is chemically modified through conjugation of the epsilon-amino group of the Lys) [Example 993] | 1860 nM
YXQGTFTSDFSXXLDKKAQXAFIEYLLEXGESSGAPPPSGS (synthetic construct; SITE 2: note = 2-Aminoisobutyric Acid; SITE 12: note = L-ornithine; SITE 13: note = alpha-methyl-leucine; SITE 17: note = Lysine is chemically modified through conjugation of the epsilon-amino group of the Lysine side chain with (2-[2-(2-Amino-ethoxy)-ethoxy]-acetyl)2-(gamma-Glu)) [Example 179] | 1440 nM

Item under review: YXQGTFTSDFSXXLDKKAQXAFIEYLLEGGPSSGAPPXGGS (acylated; synthetic construct; SITE 2: note = 2-Aminoisobutyric Acid; SITE 12: note = L-ornithine; SITE 13: note = alpha-methyl-leucine; SITE 17: note = Lysine is chemically modified through conjugation of the epsilon-amino group of the Lysine side chain with (2-[2-(2-Amino-ethoxy)-ethoxy]-acetyl)-(gamma-Glu)) [Example 237] . Reported cAMP Rel EC50, nM (1% HSA)?
441 nM
